Recorded values, source ChEMBL document CHEMBL4118265.

inhibition by entry:
Target: UniProt P81908
Sequence (P81908 whole entry): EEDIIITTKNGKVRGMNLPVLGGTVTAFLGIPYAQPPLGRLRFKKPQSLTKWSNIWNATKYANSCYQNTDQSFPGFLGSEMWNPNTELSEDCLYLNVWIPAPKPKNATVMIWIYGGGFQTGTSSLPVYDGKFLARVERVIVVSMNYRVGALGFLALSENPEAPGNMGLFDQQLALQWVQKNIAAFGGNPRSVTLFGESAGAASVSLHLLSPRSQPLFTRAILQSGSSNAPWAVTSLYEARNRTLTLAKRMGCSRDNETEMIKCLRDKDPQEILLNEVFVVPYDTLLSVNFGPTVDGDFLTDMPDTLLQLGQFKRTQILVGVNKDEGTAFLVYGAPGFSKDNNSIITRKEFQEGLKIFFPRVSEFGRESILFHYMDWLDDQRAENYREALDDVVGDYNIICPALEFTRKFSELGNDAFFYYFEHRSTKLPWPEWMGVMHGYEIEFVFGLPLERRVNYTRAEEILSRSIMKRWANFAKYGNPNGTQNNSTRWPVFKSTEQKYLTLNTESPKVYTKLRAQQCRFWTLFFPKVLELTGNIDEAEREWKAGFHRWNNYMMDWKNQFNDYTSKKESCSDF
Test: Inhibition of horse serum BChE at 1.563 ug using butyrylthiocholine chloride as substrate preincubated for 15 mins followed by substrate addition measured every 5 mins for 15 mins by spectrophotometric method relative to control
Please give a number only; it is taken to be in %.

COMPOUND	inhibition / %
COc1ccc(C2c3c(n[nH]c3C)Oc3nc4c(c(N)c32)CCCC4)c(OC)c1 (stereo unspecified)	37.1
Cc1[nH]nc2c1C(c1ccccc1)c1c(nc3c(c1N)CCCC3)O2 (stereo unspecified)	13.6
CSc1ccc(C2c3c(n[nH]c3C)Oc3nc4c(c(N)c32)CCCC4)cc1 (stereo unspecified)	23.7
COc1ccc2ccccc2c1C1c2c(n[nH]c2C)Oc2nc3c(c(N)c21)CCCC3 (stereo unspecified)	25.1
Cc1[nH]nc2c1C(c1cc([N+](=O)[O-])ccc1Cl)c1c(nc3c(c1N)CCCC3)O2 (stereo unspecified)	13.9
Cc1[nH]nc2c1C(c1ccc(Br)cc1)c1c(nc3c(c1N)CCCC3)O2 (stereo unspecified)	37.9

Request: Let me know recorded inhibition for Cc1[nH]nc2c1C(c1ccc(Cl)cc1)c1c(nc3c(c1N)CCCC3)O2 (stereo unspecified) , thanks.
Result: 23.4

Request: Let me know recorded inhibition for Cc1[nH]nc2c1C(c1c(Cl)cccc1[N+](=O)[O-])c1c(nc3c(c1N)CCCC3)O2 (stereo unspecified) , thanks.
Result: 66.2

Request: Let me know recorded inhibition for Cc1[nH]nc2c1C(c1ccc([N+](=O)[O-])cc1)c1c(nc3c(c1N)CCCC3)O2 (stereo unspecified) , thanks.
Result: 66.8

Request: Let me know recorded inhibition for COc1ccc2c3c1O[C@H]1C[C@@H](O)C=C[C@@]31CCN(C)C2 , thanks.
Result: 55.2

Request: Let me know recorded inhibition for Cc1[nH]nc2c1C(c1cccnc1)c1c(nc3c(c1N)CCCC3)O2 (stereo unspecified) , thanks.
Result: 53.9
